tested on: M14; assay: NCI tumour cell line growth inhibition, 48 h
Activity calls are given as the source filed them. No stated cut-off is given here; in the data, active = GI50 up to about 1.1 µM and inactive = higher.
Outcomes: active, inactive

INSERT INTO measurements (compound, label_value) VALUES
  ('COc1cc2c(C)cc(O)cc2c2cc(O)c(C)cc12', 'inactive'),
  ('O=C1CSc2ccnc(=O)n21', 'inactive'),
  ('C#CCC(O)c1ccc(OC)c(OCc2ccccc2)c1 (configuration not stated)', 'inactive'),
  ('O=c1c2cc(I)ccc2nc(-c2cccs2)n1O', 'inactive'),
  ('C[C@]12[C@@H]3CC[C@H]1[C@@H](O)C(=O)N2CC3', 'inactive'),
  ('O=C1OC(OC/C(Br)=C(/Br)COC2OC(=O)C(Cl)=C2Cl)C(Cl)=C1Cl (configuration not stated)', 'inactive'),
  ('Cc1cc2nc(-c3c(F)cccc3F)n(Cc3c(F)cccc3F)c2cc1C', 'inactive'),
  ('O=C1/C(=C/c2ccccc2[N+](=O)[O-])N=C(c2ccccc2)N1C1Nc2cc3c(cc2S1)NC(N1C(=O)/C(=C/c2ccccc2[N+](=O)[O-])N=C1c1ccccc1)S3 (configuration not stated)', 'inactive'),
  ('Cn1c(-c2ccccc2)cc(-c2ccc3c(c2)OCO3)c1-c1cccs1', 'inactive'),
  ('c1cc2cc(c1)CN1CCNCCN(CCNCC1)Cc1cccc(c1)CN1CCNCCN(CCNCC1)C2', 'inactive'),
  ('O=C(O)C1C2CC3CC2CC31 (configuration not stated)', 'inactive'),
  ('Cc1c(Cl)cccc1N1C(=O)C(Cl)=C(Cl)C1=O', 'inactive'),
  ('COC1Cc2c(C)c(OC(C)=O)c3cccnc3c2O1 (configuration not stated)', 'inactive'),
  ('Nc1ccc(S(=O)(=O)Nc2cnc3ccccc3n2)cc1', 'inactive'),
  ('CS(=O)(=O)Nc1ccc2ccccc2c1', 'inactive'),
  ('C=C(C)C1Cc2c(cc(O)c3c(=O)c4ccccc4n(C)c23)O1 (configuration not stated)', 'inactive'),
  ('O=C1c2c(c3c4ccccc4n(CC4CO4)c3c3[nH]c4ccccc4c23)C(=O)N1Cc1ccccc1 (configuration not stated)', 'inactive'),
  ('O=S(=O)(O)CCS', 'inactive'),
  ('Cc1nn(C(=O)c2ccc(Cl)cc2)c2c1C(c1ccccc1O)SC(=N)N2 (configuration not stated)', 'inactive'),
  ('CCN(CC)CC(=O)O[C@]1(CC)C(=O)OCc2c1cc1n(c2=O)Cc2cc3ccccc3nc2-1', 'active'),
  ('O=[N+]([O-])C(=C1Nc2ccccc2N1)C(Cl)=C(Cl)Cl', 'inactive'),
  ('OC1(c2ccc(Cl)cc2)c2ccc3ccccc3c2C2=N[C@H]3CCCC[C@@H]3N21 (some centres not stated)', 'inactive'),
  ('C/C(=N\O)c1cccc(Nc2c3ccccc3nc3occc23)c1', 'inactive'),
  ('COC(=O)N[C@@H]1C[C@H]2CC[C@]1(O[Si](C(C)C)(C(C)C)C(C)C)C(=O)C2', 'inactive'),
  ('Cc1ccc(S(=O)(=O)n2cnc(CC(NC(=O)C3CCC(=O)N3C(=O)OCc3ccccc3)C(=O)N3CCCC3C(=O)NN)c2)cc1 (configuration not stated)', 'inactive'),
  ('O=C(NCCCN1CCN(CCCNC(=O)c2cc(-c3ccccc3)nc3ccccc23)CC1)c1cc(-c2ccccc2)nc2ccccc12', 'inactive'),
  ('O=C(OCc1ccccc1)c1ccc(NCc2cc(O)ccc2O)cc1', 'inactive'),
  ('Clc1ccccc1C1N2CCCCC2[C@@H]2c3[nH]c4ccccc4c3CCN12 (some centres not stated)', 'inactive'),
  ('O=C(/C(=C/c1ccc(Cl)cc1)c1ccccc1)c1ccccc1', 'inactive'),
  ('O=C1C2=Cc3ccccc3OC2(O)Oc2cc3ccccc3cc21 (configuration not stated)', 'inactive'),
  ('CCOC(=O)C1C(=O)CC1(C)C (configuration not stated)', 'inactive'),
  ('Oc1cc(Br)cc2cccnc12', 'inactive'),
  ('C[C@]12CCC(N3CCCC3)CC1=CC[C@@H]1[C@@H]2CC[C@]2(C)C(O)[C@H](n3ccnc3)C[C@@H]12 (some centres not stated)', 'inactive'),
  ('O=c1oc2ccccc2c(-c2ccc(O)cc2)c1Oc1ccccc1', 'inactive'),
  ('COC(=O)C12C3C4C1C1C2C3C41C(=O)O (configuration not stated)', 'inactive'),
  ('O=c1oc2ccc([N+](=O)[O-])cc2c(Nc2ccc3c(c2)S(=O)(=O)c2ccccc2O3)c1[N+](=O)[O-]', 'inactive'),
  ('CCOC(=O)c1c(NCc2ccccc2)n(-c2ccccc2)c(=S)n(-c2ccccc2)c1=O', 'inactive'),
  ('O=C(NC(C(F)(F)F)(C(F)(F)F)P(=O)(c1ccccc1)c1ccccc1)C(C(F)(F)F)C(F)(F)F', 'inactive'),
  ('O=c1cc(O)c1=O', 'inactive'),
  ('COc1ccc2[nH]c3c(c2c1)CC(=O)N1CCC[C@H](C1)CC31OCCCO1', 'inactive'),
  ('O=c1oc2ccc(-n3c(=O)c4ccccc4c4ccccc4c3=O)cc2c2ccccc12', 'inactive'),
  ('CCOC(=O)Cc1cc(OC)c(OC)cc1/C(Cl)=C(\CO)c1ccc(OC)c(OC)c1', 'inactive');
